- study-system: KIT^V559D,V654A (Homo sapiens, UniProt P10721, V559D/V654A)
- Sequence (P10721 26-976 V559D/V654A): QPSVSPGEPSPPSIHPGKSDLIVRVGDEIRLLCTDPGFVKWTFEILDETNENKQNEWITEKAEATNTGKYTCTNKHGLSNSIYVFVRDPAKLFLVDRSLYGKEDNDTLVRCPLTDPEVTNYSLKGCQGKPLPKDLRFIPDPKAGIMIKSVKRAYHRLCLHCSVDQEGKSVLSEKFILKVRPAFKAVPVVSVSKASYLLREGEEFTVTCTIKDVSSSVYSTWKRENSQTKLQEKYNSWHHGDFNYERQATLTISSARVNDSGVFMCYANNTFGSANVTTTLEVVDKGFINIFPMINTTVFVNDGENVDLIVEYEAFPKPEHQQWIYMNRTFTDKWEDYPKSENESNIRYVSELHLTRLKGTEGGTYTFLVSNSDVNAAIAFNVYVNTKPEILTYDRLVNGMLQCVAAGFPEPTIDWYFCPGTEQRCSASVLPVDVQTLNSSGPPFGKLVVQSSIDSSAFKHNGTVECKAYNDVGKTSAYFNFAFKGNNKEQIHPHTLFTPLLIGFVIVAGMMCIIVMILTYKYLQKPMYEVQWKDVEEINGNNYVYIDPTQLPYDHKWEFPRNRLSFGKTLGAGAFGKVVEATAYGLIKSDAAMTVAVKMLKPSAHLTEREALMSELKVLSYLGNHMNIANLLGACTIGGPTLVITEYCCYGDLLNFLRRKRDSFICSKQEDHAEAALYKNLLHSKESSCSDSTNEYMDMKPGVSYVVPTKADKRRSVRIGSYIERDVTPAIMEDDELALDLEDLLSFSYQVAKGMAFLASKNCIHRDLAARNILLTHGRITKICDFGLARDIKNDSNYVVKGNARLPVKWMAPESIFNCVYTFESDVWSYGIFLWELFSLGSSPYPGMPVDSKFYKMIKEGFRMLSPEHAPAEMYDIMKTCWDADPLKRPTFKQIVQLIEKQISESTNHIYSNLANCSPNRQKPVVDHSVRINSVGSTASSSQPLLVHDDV
- procedure-text: KINOMEscan active-site competitive binding assay
measured-parameter: Kd (nM)

structure: CNC(=O)c1cc(Oc2ccc(NC(=O)Nc3ccc(Cl)c(C(F)(F)F)c3)c(F)c2)cc[n+]1[O-]
study-system: KIT^V559D,V654A (Homo sapiens, UniProt P10721, V559D/V654A)
measured-parameter: Kd
result: 51

structure: NC(=O)c1cc(Oc2ccc(NC(=O)Nc3ccc(Cl)c(C(F)(F)F)c3)c(F)c2)cc[n+]1[O-]
study-system: KIT^V559D,V654A (Homo sapiens, UniProt P10721, V559D/V654A)
measured-parameter: Kd
result: 42

###

- study-system: VEGFR2 (Homo sapiens, UniProt P35968)
- Sequence (P35968 20-1356): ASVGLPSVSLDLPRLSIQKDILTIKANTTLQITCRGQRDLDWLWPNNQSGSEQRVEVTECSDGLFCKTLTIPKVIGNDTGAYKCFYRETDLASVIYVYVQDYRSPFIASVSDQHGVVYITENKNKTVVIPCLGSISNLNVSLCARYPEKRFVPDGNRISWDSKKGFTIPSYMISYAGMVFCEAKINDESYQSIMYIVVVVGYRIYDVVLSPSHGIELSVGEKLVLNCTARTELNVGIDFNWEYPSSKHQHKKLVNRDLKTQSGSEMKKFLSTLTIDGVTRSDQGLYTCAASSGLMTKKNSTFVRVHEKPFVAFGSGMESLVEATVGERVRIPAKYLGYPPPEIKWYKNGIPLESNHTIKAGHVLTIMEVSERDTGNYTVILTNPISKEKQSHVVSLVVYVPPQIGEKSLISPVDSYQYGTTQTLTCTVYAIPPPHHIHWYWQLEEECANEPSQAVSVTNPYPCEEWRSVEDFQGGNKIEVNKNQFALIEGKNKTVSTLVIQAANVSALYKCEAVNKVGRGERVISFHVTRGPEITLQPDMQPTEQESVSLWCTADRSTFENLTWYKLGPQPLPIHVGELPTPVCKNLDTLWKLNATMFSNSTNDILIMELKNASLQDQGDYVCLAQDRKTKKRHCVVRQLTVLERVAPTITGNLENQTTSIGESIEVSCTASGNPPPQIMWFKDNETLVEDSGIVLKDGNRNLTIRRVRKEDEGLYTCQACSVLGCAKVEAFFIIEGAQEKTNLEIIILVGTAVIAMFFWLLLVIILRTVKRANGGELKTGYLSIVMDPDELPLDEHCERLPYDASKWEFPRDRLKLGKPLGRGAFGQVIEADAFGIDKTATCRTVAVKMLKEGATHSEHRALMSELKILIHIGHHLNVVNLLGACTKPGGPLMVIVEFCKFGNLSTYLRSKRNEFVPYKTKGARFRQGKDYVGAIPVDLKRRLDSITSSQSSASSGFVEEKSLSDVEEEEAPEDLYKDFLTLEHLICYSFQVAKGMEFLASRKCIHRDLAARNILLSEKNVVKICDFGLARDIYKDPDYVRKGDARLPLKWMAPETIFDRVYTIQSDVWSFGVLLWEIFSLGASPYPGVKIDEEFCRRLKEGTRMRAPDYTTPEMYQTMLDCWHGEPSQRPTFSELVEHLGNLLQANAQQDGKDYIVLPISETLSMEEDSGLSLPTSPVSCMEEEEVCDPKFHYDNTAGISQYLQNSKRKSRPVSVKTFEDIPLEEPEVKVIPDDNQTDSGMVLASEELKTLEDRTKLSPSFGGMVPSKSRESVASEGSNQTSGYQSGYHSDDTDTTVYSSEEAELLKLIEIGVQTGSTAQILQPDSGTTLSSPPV
- procedure-text: KINOMEscan active-site competitive binding assay
- condition-context: slash = two separate measurements
Listed here: items and their measured Kd.
measured-parameter: Kd (nM)

compound: NC(=O)c1cc(Oc2ccc(NC(=O)Nc3ccc(Cl)c(C(F)(F)F)c3)c(F)c2)cc[n+]1[O-] [M‐5]
measured-parameter: Kd
endpoint-unit: nM
result: 31
//
compound: CNC(=O)c1cc(Oc2ccc(NC(=O)Nc3ccc(Cl)c(C(F)(F)F)c3)c(F)c2)cc[n+]1[O-] [M‐2]
measured-parameter: Kd
endpoint-unit: nM
result: 29

###

- study-system: FGFRs
- procedure-text: KINOMEscan active-site competitive binding assay
- condition-context: range among family members, data not shown

compound: NC(=O)c1cc(Oc2ccc(NC(=O)Nc3ccc(Cl)c(C(F)(F)F)c3)c(F)c2)cc[n+]1[O-] [M‐5]
Kd: 790 to 1100 nM
//
compound: CNC(=O)c1cc(Oc2ccc(NC(=O)Nc3ccc(Cl)c(C(F)(F)F)c3)c(F)c2)cc[n+]1[O-] [M‐2]
Kd: 440 to 880 nM

###

- study-system: PDGFRs
- procedure-text: KINOMEscan active-site competitive binding assay
- condition-context: range among family members
pKd: −log10 of the molar value.

structure: NC(=O)c1cc(Oc2ccc(NC(=O)Nc3ccc(Cl)c(C(F)(F)F)c3)c(F)c2)cc[n+]1[O-]
pKd: 7.96

###

- study-system: MKNK2 (Homo sapiens, UniProt Q9HBH9)
- Sequence (Q9HBH9 whole entry): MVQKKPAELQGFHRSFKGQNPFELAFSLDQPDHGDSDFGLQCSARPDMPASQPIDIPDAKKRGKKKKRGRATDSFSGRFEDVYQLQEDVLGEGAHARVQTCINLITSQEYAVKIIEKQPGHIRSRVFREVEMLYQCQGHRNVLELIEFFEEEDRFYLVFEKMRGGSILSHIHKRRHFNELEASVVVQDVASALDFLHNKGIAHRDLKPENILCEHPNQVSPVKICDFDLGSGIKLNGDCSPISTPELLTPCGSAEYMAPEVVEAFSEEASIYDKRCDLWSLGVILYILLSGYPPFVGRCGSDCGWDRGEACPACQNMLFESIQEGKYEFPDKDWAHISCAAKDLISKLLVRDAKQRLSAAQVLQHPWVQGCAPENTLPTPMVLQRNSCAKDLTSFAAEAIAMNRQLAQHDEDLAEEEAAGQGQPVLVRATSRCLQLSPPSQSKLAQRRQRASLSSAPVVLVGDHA
- procedure-text: KINOMEscan active-site competitive binding assay
- condition-context: slash = two separate measurements
Listed here: items and their measured Kd.
measured-parameter: Kd (nM)

structure: CNC(=O)c1cc(Oc2ccc(NC(=O)Nc3ccc(Cl)c(C(F)(F)F)c3)c(F)c2)cc[n+]1[O-]
study-system: MKNK2 (Homo sapiens, UniProt Q9HBH9)
measured-parameter: Kd
endpoint-unit: nM
result: 20

structure: NC(=O)c1cc(Oc2ccc(NC(=O)Nc3ccc(Cl)c(C(F)(F)F)c3)c(F)c2)cc[n+]1[O-]
study-system: MKNK2 (Homo sapiens, UniProt Q9HBH9)
measured-parameter: Kd
endpoint-unit: nM
result: 11

###

- study-system: DDR2 (Homo sapiens, UniProt Q16832)
- Construct: purchased DiscoveRx (KINOMEscan service)
- Sequence (Q16832 22-855): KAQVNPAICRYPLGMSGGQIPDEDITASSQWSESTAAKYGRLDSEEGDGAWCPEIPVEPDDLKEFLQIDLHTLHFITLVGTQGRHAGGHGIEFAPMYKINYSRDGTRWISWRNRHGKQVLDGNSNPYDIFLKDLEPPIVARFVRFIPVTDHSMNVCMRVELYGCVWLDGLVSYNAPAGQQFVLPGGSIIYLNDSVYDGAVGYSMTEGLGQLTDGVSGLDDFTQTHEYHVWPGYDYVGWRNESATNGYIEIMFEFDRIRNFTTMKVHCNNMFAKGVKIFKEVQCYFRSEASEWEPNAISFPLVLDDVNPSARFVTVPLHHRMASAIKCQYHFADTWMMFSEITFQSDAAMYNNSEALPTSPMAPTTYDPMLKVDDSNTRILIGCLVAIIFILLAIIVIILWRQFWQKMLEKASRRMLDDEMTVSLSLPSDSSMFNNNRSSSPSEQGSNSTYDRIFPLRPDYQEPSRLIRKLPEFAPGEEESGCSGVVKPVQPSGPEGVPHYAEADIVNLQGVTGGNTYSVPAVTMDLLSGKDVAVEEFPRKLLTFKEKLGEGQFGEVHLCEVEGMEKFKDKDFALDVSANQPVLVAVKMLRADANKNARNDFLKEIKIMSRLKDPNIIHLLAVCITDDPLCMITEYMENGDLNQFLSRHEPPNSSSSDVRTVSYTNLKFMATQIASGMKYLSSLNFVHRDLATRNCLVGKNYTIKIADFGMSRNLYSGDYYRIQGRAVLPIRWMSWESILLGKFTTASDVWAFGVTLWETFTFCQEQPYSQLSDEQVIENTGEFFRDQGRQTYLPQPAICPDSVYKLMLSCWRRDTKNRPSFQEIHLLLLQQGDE
- procedure-text: KINOMEscan active-site competitive binding assay
- condition-context: slash = two separate measurements
pKd: −log10 of the molar value.
Listed here: items and their measured pKd.
measured-parameter: pKd

structure: NC(=O)c1cc(Oc2ccc(NC(=O)Nc3ccc(Cl)c(C(F)(F)F)c3)c(F)c2)cc[n+]1[O-]
measured-parameter: pKd
result: 8.60
--
structure: CNC(=O)c1cc(Oc2ccc(NC(=O)Nc3ccc(Cl)c(C(F)(F)F)c3)c(F)c2)cc[n+]1[O-]
measured-parameter: pKd
result: 8.28
